- method-notes: PK profile, IV plasma concentration and PK parameters
- Type: in vivo
- study-conditions: Balb/C nude, mouse, iv, 5 mg/kg, 30% Kolliphore EL with 1% poloxamar 407 in water, time points considered 0.25-2 h (1 h excluded)
readout-kind: half-life (min)
State the answer as a number, implicitly in min.

Ask: Which half-life value belongs to CCCC[C@H]1Cc2c([nH]c3ccccc23)[C@H](c2ccc(S(=O)(=O)NC3CC3)cc2F)N1C(=O)CCl ?
Result: 15

###

- method-notes: PK profile, IV plasma concentration and PK parameters
- Type: in vivo
- study-conditions: Balb/C nude, mouse, iv, 5 mg/kg, 30% Kolliphore EL with 1% poloxamar 407 in water
readout-kind: C0 (ng/mL)
State the answer as a number, implicitly in ng/mL.

Field: example entries. Status: answers known.
[
  {
    "compound": "C[C@H]1Cc2c([nH]c3ccccc23)[C@H](c2ccc(NC34CC5CC(CC(C5)C3)C4)cc2)N1C(=O)CCl [Compound 150]",
    "unit-name": "ng/mL",
    "value-observed": 3400
  },
  {
    "compound": "CCCC[C@H]1Cc2c([nH]c3ccccc23)[C@H](c2ccc(NC34CC5CC(CC(C5)C3)C4)cc2)N1C(=O)CCl [Compound 149]",
    "unit-name": "ng/mL",
    "value-observed": 29400
  },
  {
    "compound": "C#CC(=O)N1[C@@H](CCCC)Cc2c([nH]c3ccccc23)[C@@H]1c1ccc(NC23CC4CC(CC(C4)C2)C3)cc1 [Compound 148]",
    "unit-name": "ng/mL",
    "value-observed": 40600
  }
]

Ask: Which C0 value belongs to CCCC[C@H]1Cc2c([nH]c3ccccc23)[C@H](c2ccc(S(=O)(=O)NC3CC3)cc2F)N1C(=O)CCl [Compound 169] ?
Result: 5380
